Data origin, for the record: PubChem BioAssay (NCI)

Entries annotated with measured log10 of TGI
# Test system: OVCAR-4 ovarian
# procedure-summary: NCI tumour cell line growth inhibition, 48 h
# log10 transformed; quantity=TGI; unit=µM

Worked examples follow.
compound: COc1ccc2ccc([Se]c3ccc4ccc(OC)cc4c3)cc2c1
tgt: OVCAR-4 ovarian
value-measured: 1.67

compound: C/C=C(/C)C(=O)O[C@H]1C(C)=C[C@]23C(=O)[C@@H](C=C(COC(C)=O)[C@@H](O)[C@]12O)[C@H]1[C@@H](C[C@H]3C)[C@@]1(C)OC(=O)/C(C)=C\C
tgt: OVCAR-4 ovarian
value-measured: 0.80

compound: CCSc1nc(N=Cc2cccs2)c2cn[nH]c2n1
tgt: OVCAR-4 ovarian
value-measured: 1.83

compound: C=C(C)[C@@H]1CC[C@]2(C(=O)O)CC[C@]3(C)[C@H](CC[C@@H]4[C@@]5(C)CC[C@H](C(=O)/C=C/c6ccc(O)cc6)C(C)(C)[C@@H]5CC[C@]43C)[C@@H]12
tgt: OVCAR-4 ovarian
value-measured: 1.86

compound: CCCCc1c2c(nc3c1CCC/C3=C\c1ccccc1)C(=O)C(CN(C)C)CC2 (stereo not drawn)
tgt: OVCAR-4 ovarian
value-measured: 1.36

We next turn to a different compound, shown below.
Request: Respond only with log10 of TGI recorded for c1ccc(CCN(Cc2nc3ccccc3[nH]2)Cc2nc3ccccc3[nH]2)cc1
Result: 1.84
